Numbers sourced from PubChem BioAssay AID651821.

assay: binders of r(CAG) RNA repeats, primary screen, biochemical, fluorescence (AID 651821); conditions: r(CAG) RNA repeat, TO-PRO-1 dye displacement fluorescence; at 3 µM; stronger effect = higher value;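 also: 0% = DMSO alone and 100% = 100 µM mitoxantrone as full dye displacement; higher means more dye released from RNA so lower well fluorescence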
Out of some 370,000 compounds screened, about 4,700 (1.3%) were called active. The entries come from a sample that favours actives as a whole.
Assay Metric: inhibition (%)
The reply should be a number in %, with the unit left off.

These recorded examples may help you get a feel for the data.
Compound | Numeric Value
O=C(NC(=S)N1C[C@H]2C[C@H](C1)c1cccc(=O)n1C2)c1ccc(F)cc1 | 0.97
COc1cc(OC)cc(C(=O)NCCN2CCC3(CC2)C(=O)NCN3c2ccccc2)c1 | 4.12

For record "O=C1NC(=O)N(Cc2ccco2)C(=O)/C1=C\c1ccc(-c2ccc(F)cc2)o1" the listed inhibition is 52.2

For record CCC1(CC(C)c2ccccc2)C(=O)NC(=O)NC1=O (centres undefined) the listed inhibition is 1.88

For record O=S(=O)(c1ccccc1)N1CCC2CCNC2C1 (centres undefined) the listed inhibition is 1.15

For record CN(C)C(=O)NC(O)C(Cl)(Cl)Cl (centres undefined) the listed inhibition is -3.56

For record "COc1cccc(N2C(=O)NC(=O)/C(=C\c3ccc([N+](=O)[O-])s3)C2=O)c1" the listed inhibition is 56

For record "Brc1ccc2c(c1)CNCc1cnnn1-2" the listed inhibition is 0.59

###

assay: binders of r(CAG) RNA repeats, primary screen, biochemical, fluorescence (AID 651821); conditions: r(CAG) RNA repeat, TO-PRO-1 dye displacement fluorescence; at 3 µM; stronger effect = higher value;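 also: 0% = DMSO alone and 100% = 100 µM mitoxantrone as full dye displacement; higher means more dye released from RNA so lower well fluorescence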
Out of some 370,000 compounds screened, about 4,700 (1.3%) were called active. This excerpt belongs to a sample that is enriched for actives.
Assay Metric: inhibition

Compound | inhibition
COc1ccc2[nH]c3c(c2c1)CCN[C@H]3C | 3.06% (inactive)
CC1=C(C(=O)Nc2ccccc2)SCCO1 | 5.19% (inactive)

For record "O=Cc1cn(Cc2ccc(F)cc2Cl)c2ccccc12" the listed inhibition is -0.22% (inactive)

For record Cc1ccsc1C(=O)C1CCCN(Cc2ccc(O)cc2)C1 (stereo unspecified) the listed inhibition is -1.2% (inactive)

For record "CCN(CC)C(=O)[C@@H]1C=C2c3cccc4[nH]c(Br)c(c34)C[C@H]2N(C)C1" the listed inhibition is 2.23% (inactive)

###

assay: binders of r(CAG) RNA repeats, primary screen, biochemical, fluorescence (AID 651821); details: r(CAG) RNA repeat, TO-PRO-1 dye displacement fluorescence; at 3 µM; stronger effect = higher value;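 also: 0% = DMSO alone and 100% = 100 µM mitoxantrone as full dye displacement; higher means more dye released from RNA so lower well fluorescence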
Screen size: about 370,000 compounds; about 4,700 (1.3%) were called active. The entries come from a sample that favours actives as a whole.
Assay Metric: inhibition (%)
The reply should be a number in %, with the unit left off.

Compound | inhibition, %
CCCCn1c(O)c(C(CC)=NCc2ccco2)c(=O)[nH]c1=O | -0.86
CCc1nnc(NS(=O)(=O)c2ccc(N=Cc3c(O)n(-c4ccccc4)c(=O)[nH]c3=O)cc2)s1 | 5.87
COc1ccc2c(c1)[C@]13CCCCC1C(C2)N(C)CC3 (stereo partly specified) | 3.99
COc1ccc(N2C(=O)/C(=C/c3ccco3)C(=O)NC2=S)cc1 | 67.3

For record "O=c1[nH]c(=O)n(Cc2ccccc2)c(O)c1/C=N/Nc1c(F)c(F)c(F)c(F)c1F" the listed inhibition is 0.55

For record "CC/C(=N\NC(=O)c1ccccc1O)c1c(O)n(Cc2ccccc2)c(=O)[nH]c1=O" the listed inhibition is 80.1

For record O=C1C2(Cl)C3(Cl)C4(Cl)C(Cl)(Cl)C5(Cl)C3(Cl)C1(Cl)C5(Cl)C24Cl (stereo unspecified) the listed inhibition is 11.4

For record "COc1ccc(CN2CCN(c3ccccc3F)CC2)c(OC)c1" the listed inhibition is -4.43

For record "CC(C)(C)c1ccc(CN2C(=O)CN=C(c3ccccc3)c3ccccc32)cc1" the listed inhibition is -3.15

For record CS(=O)(=O)N1CCC2CCNC2C1 (stereo unspecified) the listed inhibition is 0.17

For record "Cc1ccccc1CCC[C@@H](CC1CCCCC1)CN(C)C(=O)Oc1ccccc1" the listed inhibition is 6.44
